Each recorded value in this set is attributed to ChEMBL document CHEMBL2046335.

# TARGET ENTITY: Deoxyuridine 5'-triphosphate nucleotidohydrolase, mitochondrial (Homo sapiens)
# Sequence (P33316 whole entry): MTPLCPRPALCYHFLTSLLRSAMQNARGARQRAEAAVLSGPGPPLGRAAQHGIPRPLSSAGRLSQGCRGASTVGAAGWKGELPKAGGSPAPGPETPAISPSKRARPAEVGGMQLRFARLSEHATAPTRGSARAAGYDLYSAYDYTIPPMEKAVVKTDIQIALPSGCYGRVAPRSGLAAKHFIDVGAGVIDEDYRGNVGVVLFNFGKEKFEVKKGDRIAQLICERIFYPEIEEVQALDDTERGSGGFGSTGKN
# note: exactly 10 µM is not below, so it is condition not met; use condition met for IC50 strictly under it

Query string: Hello, is IC50 of the following molecule strictly smaller than 10 µM? CC(C)(NC(=O)CCCn1ccc(=O)[nH]c1=O)C(O)(c1ccccc1)c1ccccc1
Result string: condition met

Query string: Consider O=c1ccn(CCCS(=O)(=O)N2CCC[C@@H]2C(O)(c2cccc(F)c2)c2cccc(F)c2)c(=O)[nH]1 . Does its IC50 lie strictly below 10 µM?
Result string: condition met

Query string: is_below(IC50, 10 µM) for CCC(CC)(CC)NC(=O)CCn1ccc(=O)[nH]c1=O ?
Result string: condition not met

Query string: Dear colleague, could you confirm whether IC50 of O=C(CCn1ccc(=O)[nH]c1=O)NCC(c1ccccc1)c1ccccc1 falls below 10 µM? Thanks.
Result string: condition not met

Query string: Is IC50 of CC(C)(C)NC(=O)CCn1ccc(=O)[nH]c1=O strictly below 10 µM?
Result string: condition not met

Query string: Lab note: confirm whether the reported IC50 for this molecule is below 10 µM, equality not counting. molecule: O=C(CCCn1ccc(=O)[nH]c1=O)NC(c1ccccc1)c1ccccc1
Result string: condition not met

Query string: Given CC(C)(Cc1ccccc1)NC(=O)CCCn1ccc(=O)[nH]c1=O , is recorded IC50 strictly lower than 10 µM?
Result string: condition not met

Query string: Field: below-cutoff. Rule: recorded IC50 strictly less than 10 µM. Subject: CN(CC(c1ccccc1)c1ccccc1)C(=O)CCCn1ccc(=O)[nH]c1=O
Result string: condition met
